# tested target: T1, human CD71 extracellular domain (human, UniProt P02786 89-760)
# T1 construct: also called hCD71; human CD71-ECD
# T1 sequence (P02786 89-760): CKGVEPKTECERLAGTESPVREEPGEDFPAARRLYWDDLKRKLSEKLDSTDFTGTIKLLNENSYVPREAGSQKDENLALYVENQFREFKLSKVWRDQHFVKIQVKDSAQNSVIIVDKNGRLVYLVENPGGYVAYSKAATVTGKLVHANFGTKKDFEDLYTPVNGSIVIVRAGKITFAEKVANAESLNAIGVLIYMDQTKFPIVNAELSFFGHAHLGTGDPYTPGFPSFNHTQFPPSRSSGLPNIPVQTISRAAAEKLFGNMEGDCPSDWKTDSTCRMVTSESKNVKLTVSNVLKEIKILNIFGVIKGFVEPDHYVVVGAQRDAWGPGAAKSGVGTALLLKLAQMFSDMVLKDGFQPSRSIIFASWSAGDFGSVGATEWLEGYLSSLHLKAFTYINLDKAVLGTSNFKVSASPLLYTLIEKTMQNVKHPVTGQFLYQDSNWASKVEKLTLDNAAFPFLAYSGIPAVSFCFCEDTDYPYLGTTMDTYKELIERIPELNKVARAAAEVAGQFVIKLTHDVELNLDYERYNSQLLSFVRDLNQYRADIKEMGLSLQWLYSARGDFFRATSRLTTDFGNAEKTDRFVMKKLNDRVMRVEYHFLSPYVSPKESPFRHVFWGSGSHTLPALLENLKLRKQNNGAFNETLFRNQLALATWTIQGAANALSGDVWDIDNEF
# assay overview: primary ELISA, signal ratio to HSA
Where hCD71:HSA equals or exceeds 100, the correct label is Satisfied; where it does not, the label is Not satisfied.

(Q) Does hCD71:HSA meet or surpass 100 for CD71-binding FN3 domain of SEQ ID NO: 202 (designed binder) MSLPAPKNLVVSRVTEDSARLSWTAPDAAFDSFEIGYFENLYLGEAIVLTVPGSERSYDLTGLKPGTEYYVHIGGVKGGIWSSPLSAIFTT ?
(A) Not satisfied

(Q) Does hCD71:HSA meet or surpass 100 for CD71-binding FN3 domain of SEQ ID NO: 173 (designed binder) MSLPAPKNLVVSRVTEDSARLSWTAPDAAFDSFEIAYQELSLWGEAIVLTVPGSERSYDLTGLKPGTEYYVHIGGVKGGIWSSPLVAHFTT ?
(A) Satisfied

(Q) Does hCD71:HSA meet or surpass 100 for CD71-binding FN3 domain of SEQ ID NO: 167 (designed binder) MSLPAPKNLVVSRVTEDSARLSWTAPDAAFDSFFIGYLEPQPPGEAIVLTVPGSERSYDLTGLKPGTEYNVTIQGVKGGFPSVPLSAAFTT ?
(A) Not satisfied

(Q) Does hCD71:HSA meet or surpass 100 for CD71-binding FN3 domain of SEQ ID NO: 178 (designed binder) MGSLPAPKNLVVSRVTEDSARLSWTAPDAAFDSFFIGYLEPQPPGEAISLYVPGSERSYDLTGLKPGTEYNVTIQGVKGGFPSDPLVAHFTT ?
(A) Satisfied

(Q) Does hCD71:HSA meet or surpass 100 for CD71-binding FN3 domain of SEQ ID NO: 132 (designed binder) MSLPAPKNLVVSRVTEDSARLSWTAPDAAFDSFEIGYFENLYLGEAIVLTVPGSERSYDLTGLKPGTEYWVQIGGVKGVNWSAPLSAIFTT ?
(A) Satisfied

(Q) Does hCD71:HSA meet or surpass 100 for CD71-binding FN3 domain of SEQ ID NO: 137 (designed binder) MSLPAPKNLVVSRVTEDSARLSWTAPDAAFDSFFIGYLEPQPPGEAITLYVPGSERSYDLTGLKPGTEYNVTIQGVKGGFPSDPLVAHFTT ?
(A) Satisfied

(Q) Does hCD71:HSA meet or surpass 100 for CD71-binding FN3 domain of SEQ ID NO: 122 (designed binder) MSLPAPKNLVVSRVTEDSARPSWTAPDAAFDSFEIGYFENLYLGEAIVLTVPGSERSYDLTGLKPGTEYYVHIGGVKGGIWSSPLSAYFTT ?
(A) Satisfied

(Q) Does hCD71:HSA meet or surpass 100 for CD71-binding FN3 domain of SEQ ID NO: 217 (designed binder) MSLPAPKNLVVSRVTEDSARLSWTAPDAAFDSFEIAYFEQTYTGEAIVLTVPGSERSYDLTGLKPGTEYWVAIGGVKGGLWSLPLSAIFTT ?
(A) Not satisfied

(Q) Does hCD71:HSA meet or surpass 100 for CD71-binding FN3 domain of SEQ ID NO: 123 (designed binder) MSLPAPKNLVVSRVTEDSARLSWTAPDAAFDSFAIRYWELRATGEAIPLSVPGSERSYDLTGLKPGTEYHVAISGVKGGKSSYPLRASFTT ?
(A) Satisfied

(Q) Does hCD71:HSA meet or surpass 100 for CD71-binding FN3 domain of SEQ ID NO: 180 (designed binder) MSLPAPKNLVVSRVTEDSARLSWTAPDAAFDSFFIGYLEPQPPGEAISLYVPGSERSYDLTGLKPGTEYNVTIQGVKGGFPSEPLIANFTT ?
(A) Satisfied

(Q) Does hCD71:HSA meet or surpass 100 for CD71-binding FN3 domain of SEQ ID NO: 139 (designed binder) MSLPAPKNLVVSRVTEDSARLSWTAPDAAFDSFEIGYFENLYLGEAIVLTVPGSERSYDLTGLKPGTEYWVQIGGVKGGAYSTPLSAIFTT ?
(A) Satisfied

(Q) Does hCD71:HSA meet or surpass 100 for CD71-binding FN3 domain of SEQ ID NO: 215 (designed binder) MSLPAPKNLVVSRVTEDSARLSWTAPDAAFDSLEIGYFENLYLGEAIVLTVPGSERSYDLTGLKPGTEYWVQIGGVKGGNWSAPLSAIFTT ?
(A) Not satisfied

Reference source for all entries: patent US20260151494A1
